All figures here come from patent US12421254B2.

Record form. Attribute: pIC50. Fill in for each entry.
target: GST-tagged KRAS-G12V (2-169) (Homo sapiens, UniProt P01116, G12V); test: Nucleotide exchange assay (NEA), SOS-mediated, HTRF, KRAS G12V; type: biochemical; settings: Table 4; IC50 extracted at 90 min; 80 nM SOS
Sequence (P01116 2-169 isoform P01116-2 G12V): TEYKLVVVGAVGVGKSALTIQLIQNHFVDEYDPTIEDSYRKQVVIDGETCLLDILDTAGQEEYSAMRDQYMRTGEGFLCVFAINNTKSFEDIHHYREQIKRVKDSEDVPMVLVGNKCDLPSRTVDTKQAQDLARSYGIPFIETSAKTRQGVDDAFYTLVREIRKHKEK
pIC50: −log10 of the molar value.

These solved cases illustrate the format of a correct answer.
N#Cc1c(N)sc2c1C1(CN(c3nc(OCC4(CN5CCOCC5)CC4)nc(N4CCNC[C@H]4C(F)F)n3)C1)SC2	7.00 to 8.00
CN(Cc1cncs1)c1nc(OC[C@@]23CCCN2C[C@H](F)C3)nc(N2CC3(CCc4sc(N)c(C#N)c43)C2)n1	6.00 to 7.00
CC(c1cccnc1N)N(C)c1nc(OC[C@@]23CCCN2C[C@H](F)C3)nc(N2CC3(CCc4sc(N)c(C#N)c43)C2)n1 (single isomer, unassigned) [Compound 100A]	> 8.00
CC(CO)N(Cc1cccnc1N)c1nc(OC[C@@]23CCCN2C[C@H](F)C3)nc(N2CC3(CCc4sc(N)c(C#N)c43)C2)n1 (stereo partly drawn)	> 8.00
CN(c1nc(OC[C@@]23CCCN2C[C@H](F)C3)nc(N2CC3(CCc4sc(N)c(C#N)c43)C2)n1)[C@@H]1CCC[C@@H]1O (racemic)	6.00 to 7.00

From here, focus on the item given below.
Exam item: What measured pIC50 goes with `C[C@@]1(CO)C[C@H](O)CN1c1nc(OC[C@@]23CCCN2C[C@H](F)C3)nc(N2CC3(CCc4sc(N)c(C#N)c43)C2)n1` ?
Marked response: 7.00 to 8.00

---

molecular target: w.t. KRAS/RAF1 (Homo sapiens, UniProt P01116); construct: KRAS (1-169) proteins were expressed in BL21 (DE3)-CodonPlus E. coli; His6-MBP (N, cleaved yes); test: Protein-protein interaction (PPI) HTRF assay w.t. KRAS/RAF1; format: binding; conditions: Table 3; wt KRAS/RAF1
Sequence (P01116 with tags, fused parts or gaps isoform P01116-2): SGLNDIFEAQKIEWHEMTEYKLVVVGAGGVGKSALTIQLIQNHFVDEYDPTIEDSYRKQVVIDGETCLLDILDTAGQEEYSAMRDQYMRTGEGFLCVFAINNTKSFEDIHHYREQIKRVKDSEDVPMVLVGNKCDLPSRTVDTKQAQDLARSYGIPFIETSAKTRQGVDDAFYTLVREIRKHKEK
REPORTED_PROPERTY: IC50

N#Cc1c(N)sc2c1C1(CC2)CN(c2nc(OCC3(CN4CCOCC4)CC3)nc(N3C[C@H]4CC[C@@H](C3)N4)n2)C1 [Compound 2]	1 to 10 µM
C[C@]1(O)CN(c2nc(OC[C@@]34CCCN3C[C@H](F)C4)nc(N3CC4(CCc5sc(N)c(C#N)c54)C3)n2)CC[C@H]1O [Compound 21]	0.1 to 1 µM

Count: 6. Required value per item: IC50.
1. N#Cc1c(N)sc2c1C1(CC2)CN(c2nc(OC[C@@]34CCCN3C[C@H](F)C4)nc(N3CCCC(C#N)C3)n2)C1 (stereo partly shown) [Compound 13]
2. CN(CC1(C#N)CC1)c1nc(OC[C@@]23CCCN2C[C@H](F)C3)nc(N2CC3(CCc4sc(N)c(C#N)c43)C2)n1 [Compound 15]
3. N#Cc1c(N)sc2c1C1(CC2)CN(c2nc(OCC3(C#N)CC3)nc(OC[C@@]34CCCN3C[C@H](F)C4)n2)C1 [Compound 16]
4. C[C@@]1(O)CCCN(c2nc(OC[C@@]34CCCN3C[C@H](F)C4)nc(N3CC4(CCc5sc(N)c(C#N)c54)C3)n2)C1 [Compound 10]
5. N#Cc1c(N)sc2c1C1(CC2)CN(c2nc(OCC34CCCN3CC(F)C4)nc(N3CC4CCC(C3)N4)n2)C1 (stereo not shown) [Compound 1]
6. CC1(C#N)CCCN(c2nc(OC[C@@]34CCCN3C[C@H](F)C4)nc(N3CC4(CCc5sc(N)c(C#N)c54)C3)n2)C1 (stereo partly shown) [Compound 19]

Marked response:
1 to 10 µM
1 to 10 µM
10 to 100 µM
1 to 10 µM
1 to 10 µM
1 to 10 µM

Count: 2. Required value per item: IC50.
1. N#Cc1c(N)sc2c1C1(CC2)CN(c2nc(OCC3(CN4CCOCC4)CC3)nc(N3CCCC4(C3)NC(=O)NC4=O)n2)C1 (stereo not shown) [Compound 7]
2. CC1(CO)CCCN(c2nc(OC[C@@]34CCCN3C[C@H](F)C4)nc(N3CC4(CCc5sc(N)c(C#N)c54)C3)n2)C1 (stereo partly shown) [Compound 18]

Marked response:
["0.1 to 1 µM", "1 to 10 µM"]
